Target: HLA-DR DRB1*0404 (human)
Experiment: radioligand binding
RECORDED ENDPOINT: IC50 (nM)
Answer in nM, number only, no unit symbol.

KSEEFQKRLHPYKDFIATLG [PAP_(173-192)] = 374

For the next question, use this binder.
## Input GET /values?readout=IC50&item= NPILLWQPIPVHTVPLSEDQ [PAP_(133-152)]
## Output 28
